Please respond with reported half-life at 2 μM for every item in the list.
- procedure.summary: Stability in liver microsomes
- Assay type: in vitro ADME
- measurement.parameters: pH 7.8; 2 μM peptidomimetic, human liver microsomes, 37° C.; read-out: half-life (t1/2) when incubated with liver microsomes
Starred links: 1 amine or outer side, 2 acyl side, 3 side chain; linkers in the order of their positions; H or OH if unused. Non-standard residues stand in square brackets, D forms with d. Residues, ends and D or L forms follow the SMILES beside them. ξ: configuration not given here. ξBip(2'-Et-4'-OMe) = CCc1cc(OC)ccc1-c1ccc(CC(N)C(=O)O)cc1; X2 = O=C(C(CCCc1ccccc1Cl)N[*:1])[*:2]; Ac3c = NC1(C(=O)O)CC1
Quick reminder: number only, in min, skip the unit.

Quick note, half-life at 2 μM for CCc1cc(OC)ccc1-c1ccc(CC(NC(=O)[C@H](CC(=O)O)NC(=O)[C@H](CO)NC(=O)[C@@H](NC(=O)C(C)(Cc2ccccc2F)NC(=O)[C@@H](NC(=O)CNC(=O)[C@H](CC(C(F)(F)F)C(F)(F)F)NC(=O)C(C)(C)NC(=O)[C@@H](N)Cc2c[nH]cn2)[C@H](C)O)[C@@H](C)O)C(=O)NC(CCCc2ccccc2)C(N)=O)cc1 (stereo partly drawn) landed at 30

Entry CCc1cc(OC)ccc1-c1ccc(CC(NC(=O)[C@H](CC(=O)O)NC(=O)[C@H](CO)NC(=O)[C@@H](NC(=O)C(C)(Cc2ccccc2F)NC(=O)[C@@H](NC(=O)CNC(=O)C(CCC#N)NC(=O)C(C)(C)NC(=O)[C@@H](N)Cc2c[nH]cn2)[C@H](C)O)[C@H](C)O)C(=O)NC(CCCc2ccccc2F)C(N)=O)cc1 (single isomer, unassigned) — recorded half-life at 2 μM = 120

Noted for CCc1cc(OC)ccc1-c1ccc(CC(NC(=O)[C@H](CC(=O)O)NC(=O)[C@H](CO)NC(=O)[C@@H](NC(=O)[C@H](Cc2ccccc2)NC(=O)[C@@H](NC(=O)CNC(=O)[C@H](CCC(N)=O)NC(=O)C2(NC(=O)[C@@H](N)Cc3c[nH]cn3)CC2)[C@@H](C)O)[C@@H](C)O)C(=O)NC(CCCc2ccccc2Cl)C(N)=O)cc1 (stereo partly drawn) [compound 74] (H-H[Ac3c]QGTFTSD[ξBip(2'-Et-4'-OMe)][X2]-NH2) : its half-life at 2 μM reads 30

====

- procedure.summary: Stability in liver microsomes
- Format: in vitro ADME
- measurement.parameters: pH 7.8; 2 μM peptidomimetic, human liver microsomes, 37° C.; read-out: half-life (t1/2) when incubated with liver microsomes
Starred links: 1 amine or outer side, 2 acyl side, 3 side chain; linkers in the order of their positions; H or OH if unused. Non-standard residues stand in square brackets, D forms with d. Residues, ends and D or L forms follow the SMILES beside them. ξ: configuration not given here. ξBip(2'-Et-4'-OMe) = CCc1cc(OC)ccc1-c1ccc(CC(N)C(=O)O)cc1; X1 = O=C(C(CCCc1ccc(C(F)(F)F)cc1F)N[*:1])[*:2]; Aib = CC(C)(N)C(=O)O
Consider the following compounds; for each one, report its half-life at 2 μM.
Numbers only; they are read as min.

So for CCc1cc(OC)ccc1-c1ccc(CC(NC(=O)[C@H](CC(=O)O)NC(=O)[C@H](CO)NC(=O)[C@@H](NC(=O)C(C)(Cc2ccccc2F)NC(=O)[C@@H](NC(=O)CNC(=O)[C@H](CC(C(F)(F)F)C(F)(F)F)NC(=O)C(C)(C)NC(=O)[C@H](Cc2c[nH]cn2)NC(C)=O)[C@@H](C)O)[C@@H](C)O)C(=O)NC(CCCc2ccccc2)C(N)=O)cc1 (single isomer, unassigned) , the logged half-life at 2 μM turned out to be 30

Record CCc1cc(OC)ccc1-c1ccc(CC(NC(=O)[C@H](CC(=O)O)NC(=O)[C@H](CO)NC(=O)[C@@H](NC(=O)[C@H](Cc2ccccc2)NC(=O)[C@@H](NC(=O)CNC(=O)[C@H](CCC(N)=O)NC(=O)C(C)(C)NC(=O)[C@@H](N)Cc2c[nH]cn2)[C@@H](C)O)[C@@H](C)O)C(=O)NC(CCCc2ccc(C(F)(F)F)cc2F)C(N)=O)cc1 (stereo partly drawn) [compound 65] (H-H[Aib]QGTFTSD[ξBip(2'-Et-4'-OMe)][X1]-NH2) , field half-life at 2 μM: 60

For CCc1cc(OC)ccc1-c1ccc(CC(NC(=O)[C@H](CC(=O)O)NC(=O)[C@H](CO)NC(=O)[C@@H](NC(=O)[C@H](Cc2ccccc2)NC(=O)[C@@H](NC(=O)CNC(=O)C(CCC#N)NC(=O)C(C)(C)NC(=O)[C@@H](N)Cc2c[nH]cn2)[C@@H](C)O)[C@@H](C)O)C(=O)NC(CCCc2cccc(Cl)c2)C(N)=O)cc1 (single isomer, unassigned) the compound record lists half-life at 2 μM as 30
